molecular target: Prothrombin (Homo sapiens, UniProt P00734); type: functional; further: assay procedure not described here
Outcome measure: AC50

Sample records with AC50:
CC1(C)O[C@@H]2C[C@H]3[C@@H]4CCC5=CC(=O)CC[C@]5(C)[C@@]4(F)[C@@H](O)C[C@]3(C)[C@]2(C(=O)CCl)O1 [HALCINONIDE]    > 30 µM
Nc1ncnc(Nc2ccc(Cl)cc2)n1    > 30 µM
c1ccc2[nH]c(-c3cscn3)nc2c1    > 30 µM

Query: Note down AC50 recorded for C[C@]12CCC(=O)C=C1CC[C@@H]1[C@@H]2[C@@H](O)C[C@@]2(C)[C@H]1CC[C@]2(O)C(=O)COC(=O)CCC(=O)O [HYDROCORTISONE HEMISUCCINATE ANHYDROUS]
Reply: > 30 µM

Query: Note down AC50 recorded for CCOc1ccc2ccccc2c1C(=O)N[C@@H]1C(=O)N2[C@@H]1SC(C)(C)[C@@H]2C(=O)O
Reply: > 30 µM

Query: Note down AC50 recorded for NCCc1ccc(O)cc1
Reply: > 30 µM

Query: Note down AC50 recorded for CO/N=C(\C(=O)N[C@@H]1C(=O)N2C(C(=O)[O-])=C(C[n+]3cccc4c3CCC4)CS[C@H]12)c1csc(N)n1
Reply: > 30 µM

Query: Note down AC50 recorded for COC(=O)C1=C(C)NC(C)=C(C(=O)O[C@H]2CCN(Cc3ccccc3)C2)[C@H]1c1cccc([N+](=O)[O-])c1
Reply: > 30 µM

###

target: Gamma-aminobutyric acid receptor subunit alpha-1 (Rattus norvegicus, UniProt P62813)
Sequence (P62813 whole entry): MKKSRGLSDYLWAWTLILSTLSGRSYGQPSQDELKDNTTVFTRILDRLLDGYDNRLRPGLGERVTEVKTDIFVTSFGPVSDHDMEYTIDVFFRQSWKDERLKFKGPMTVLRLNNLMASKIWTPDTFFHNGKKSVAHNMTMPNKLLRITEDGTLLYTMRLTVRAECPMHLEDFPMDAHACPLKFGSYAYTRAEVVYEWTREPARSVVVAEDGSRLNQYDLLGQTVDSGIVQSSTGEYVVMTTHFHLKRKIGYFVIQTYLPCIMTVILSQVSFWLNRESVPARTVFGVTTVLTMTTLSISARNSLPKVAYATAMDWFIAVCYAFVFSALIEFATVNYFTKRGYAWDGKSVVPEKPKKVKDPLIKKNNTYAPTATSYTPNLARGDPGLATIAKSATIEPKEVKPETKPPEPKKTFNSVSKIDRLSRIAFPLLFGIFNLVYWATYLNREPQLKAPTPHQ
Outcome measure: AC50

Sample records with AC50:
COCCOC(=O)C1=C(C)NC(C)=C(C(=O)OC/C=C/c2ccccc2)C1c1cccc([N+](=O)[O-])c1 (centres undefined) [CILNIDIPINE]    > 30 µM
Cc1ccc(=O)n(-c2ccccc2)c1 [PIRFENIDONE]    > 30 µM

Query: Under Gamma-aminobutyric acid receptor subunit alpha-1 (Rattus norvegicus, UniProt P62813), report AC50 for CC(CCc1ccccc1)NC(C)C(O)c1ccc(O)cc1 (centres undefined) [NYLIDRIN]
Reply: > 10 µM

Query: Under Gamma-aminobutyric acid receptor subunit alpha-1 (Rattus norvegicus, UniProt P62813), report AC50 for COc1cc(OC)c(C(=O)CCCN2CCCC2)c(OC)c1 [BUFLOMEDIL]
Reply: > 30 µM

###

The entries below come with measured AC50 values attached.
target: Gamma-aminobutyric acid receptor subunit alpha-1 (Rattus norvegicus, UniProt P62813); assay type: functional

Sample records with AC50:
CCCN(CCC)CCc1cccc2c1CC(=O)N2    > 30 µM
COc1cccc2c1C(=O)c1c(O)c3c(c(O)c1C2=O)C[C@@](O)(C(C)=O)C[C@@H]3O[C@H]1C[C@H](N)[C@H](O)[C@H](C)O1    > 30 µM
COc1cc2c(Nc3ccc(Br)cc3F)ncnc2cc1OCC1CCN(C)CC1    > 30 µM

Read the next record carefully.
Query: Under Gamma-aminobutyric acid receptor subunit alpha-1 (Rattus norvegicus, UniProt P62813), report AC50 for CC1(C)C(C=C(Cl)Cl)C1C(=O)OCc1cccc(Oc2ccccc2)c1 (centres undefined)
Reply: > 10 µM

###

Biological target: Neuropeptide Y receptor type 1 (Homo sapiens, UniProt P25929); further: assay procedure not described here
Sequence (P25929 whole entry): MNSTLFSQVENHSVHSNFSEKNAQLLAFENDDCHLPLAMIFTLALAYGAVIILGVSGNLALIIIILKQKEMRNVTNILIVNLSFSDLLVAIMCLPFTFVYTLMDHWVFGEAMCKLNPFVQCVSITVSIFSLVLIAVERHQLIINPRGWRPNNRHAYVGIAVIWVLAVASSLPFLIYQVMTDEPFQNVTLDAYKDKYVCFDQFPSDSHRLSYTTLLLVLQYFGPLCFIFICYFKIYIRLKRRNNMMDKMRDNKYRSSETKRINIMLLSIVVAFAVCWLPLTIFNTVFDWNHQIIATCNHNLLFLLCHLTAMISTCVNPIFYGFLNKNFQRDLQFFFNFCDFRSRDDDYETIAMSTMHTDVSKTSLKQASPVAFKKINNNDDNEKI
Outcome measure: AC50

N=C(N)c1ccc2cc(OC(=O)c3ccc(N=C(N)N)cc3)ccc2c1    10 µM
NC(=O)CCC/N=C(\c1ccc(Cl)cc1)c1cc(F)ccc1O [PROGABIDE]    > 10 µM

Query: Note down AC50 recorded for Cc1cccc(N(C)C(=S)Oc2ccc3ccccc3c2)c1 [TOLNAFTATE]
Reply: > 10 µM

Query: Note down AC50 recorded for COc1ccc(C(CN(C)C)C2(O)CCCCC2)cc1 (stereo not given)
Reply: > 30 µM

Query: Note down AC50 recorded for CC(C)CC(N(C)C)C1(c2ccc(Cl)cc2)CCC1 (stereo not given)
Reply: > 30 µM
